Hello, the source for this data is BigSolDB 2.1, in case you need it.

# test-context: in methanol, 293.15 K
observable: solubility (mole fraction)

- smiles-representation: "O=C(O)c1cc([N+](=O)[O-])ccc1O"
  quantitative-readout: 0.0427

====

# test-context: in acetonitrile, 303.15 K
observable: solubility (mole fraction)

- smiles-representation: "O=C(O)c1cc([N+](=O)[O-])ccc1O"
  quantitative-readout: 0.0632

====

# test-context: in NMP, 293.15 K

- smiles-representation: "O=C(O)c1cc([N+](=O)[O-])ccc1O"
  solubility (mole fraction): 0.13

====

# test-context: in n-butanol, 283.15 K

- smiles-representation: "O=C(O)c1cc([N+](=O)[O-])ccc1O"
  solubility (mole fraction): 0.0203

====

# test-context: in ethylene glycol, 308.15 K
observable: solubility (mole fraction)

- smiles-representation: "O=C(O)c1cc([N+](=O)[O-])ccc1O"
  observable: "solubility (mole fraction)"
  quantitative-readout: 0.0262

====

# test-context: in methanol, 318.15 K

- smiles-representation: "O=C(O)c1cc([N+](=O)[O-])ccc1O"
  solubility (mole fraction): 0.0728

====

# test-context: in DMF, 313.15 K

- smiles-representation: "O=C(O)c1cc([N+](=O)[O-])ccc1O"
  solubility (mole fraction): 0.161

====

# test-context: in ethanol, 318.15 K

- smiles-representation: "O=C(O)c1cc([N+](=O)[O-])ccc1O"
  solubility (mole fraction): 0.0675
